Reported slope is given for each of the following compounds.
target: Alpha-2C adrenergic receptor (Homo sapiens) (UniProt P18825); test: compounds altering alpha2C-coupled GIRK flux – cell-based, HEK293 alpha2C/GIRK1/2, thallium flux, primary screen (AID 624); conditions: thallium flux BTC fluorescence, at 10 µM, actives lie on both sides;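 note: slope of fluorescence ratio to pre-addition baseline per second over 15 to 24 s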
Sequence (P18825 whole entry, looked up): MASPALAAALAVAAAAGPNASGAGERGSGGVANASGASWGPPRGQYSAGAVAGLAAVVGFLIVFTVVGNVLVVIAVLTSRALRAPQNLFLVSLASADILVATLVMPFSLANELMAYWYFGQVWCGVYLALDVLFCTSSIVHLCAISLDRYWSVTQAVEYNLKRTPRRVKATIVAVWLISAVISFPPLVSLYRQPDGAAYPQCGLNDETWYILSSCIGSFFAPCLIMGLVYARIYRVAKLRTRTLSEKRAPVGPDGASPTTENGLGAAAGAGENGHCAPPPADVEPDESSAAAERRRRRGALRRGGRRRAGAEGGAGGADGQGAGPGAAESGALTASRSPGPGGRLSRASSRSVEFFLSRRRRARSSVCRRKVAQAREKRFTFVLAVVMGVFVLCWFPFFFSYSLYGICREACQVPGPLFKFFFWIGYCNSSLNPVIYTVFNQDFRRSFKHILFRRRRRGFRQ
Form rule: numeric answer, no unit written next to it.

Past entries and their recorded results:
Prompt: Reported slope for COc1ccc(N(C)C(=O)CCS(=O)(=O)c2cccc3nonc23)cc1 : what is it?
Response: 0.00576

Prompt: Reported slope for CC(C)c1ccc(C(O)c2cnc(C(C)C)n2C)cc1 (stereo not drawn) : what is it?
Response: 0.00678

Prompt: Reported slope for C(#Cc1ccccc1)Cn1nnc2ccccc21 : what is it?
Response: 0.00582

Prompt: Reported slope for CCc1ccc(NC(=O)CS(=O)CC(=O)NC(C)CCc2ccco2)cc1 (stereo not drawn) : what is it?
Response: 0.00694

More entries:
Prompt: Reported slope for CC1CCCN(C(=O)CN2CCN(C(=O)c3ccco3)CC2)C1 (stereo not drawn) : what is it?
Response: 0.00367

Prompt: Reported slope for O=C(CSc1nnnn1C1CCCC1)Nc1cccc(NC(=O)c2ccco2)c1 : what is it?
Response: 0.00506

Prompt: Reported slope for Nn1cc(-c2ccccc2)nc1SCC(=O)N1CCN(S(=O)(=O)c2ccccc2)CC1 : what is it?
Response: 0.00477

Prompt: Reported slope for CCOc1ccc(N(CC(=O)NC2CCCC2)S(=O)(=O)c2c(C)[nH]c(=O)[nH]c2=O)cc1 : what is it?
Response: 0.00723

###

test: endothelial E-selectin expression blockers – imaging, HUVEC, immunofluorescence, MLSMR starter and 10KST1 sets, primary screen (AID 487); details: HUVEC TNFalpha-induced E-selectin immunofluorescence imaging, at 2 µM; stronger effect = higher value;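 note: signal is fraction of cell area covered by stained E-selectin grains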
Reported inhibition is given for each of the following molecules.
Write the answer as a number in %, unit excluded.

Past entries and their recorded results:
Prompt: Reported inhibition for CC1(C)NC(=O)N(CC(O)COc2ccc(-c3ccccc3)cc2)C1=O (stereo unspecified) : what is it?
Response: -18.2

Prompt: Reported inhibition for Cn1nnnc1SCC(=O)N1CCN(c2ccccc2)CC1 : what is it?
Response: -49.9

Prompt: Reported inhibition for Cn1c(=O)c2c(nc(NCc3ccco3)n2C/C=C/c2ccccc2)n(C)c1=O : what is it?
Response: -65.5

Prompt: Reported inhibition for O=C(NC1CCCCCC1)c1cc(S(=O)(=O)N2CCC3(CC2)OCCO3)ccc1F : what is it?
Response: -16.2

Prompt: Reported inhibition for CC(=O)Nc1ccc(Cc2ccncc2)cc1 : what is it?
Response: -40.3

Prompt: Reported inhibition for Cc1nc2ccc(NC(=O)N3CCSCC3)cc2s1 : what is it?
Response: -93.4

Prompt: Reported inhibition for COC(=O)C1=C(C)OC(N)=C(C#N)C1c1ccccc1 (stereo unspecified) : what is it?
Response: -73.1

Prompt: Reported inhibition for Cc1cc(Nc2ccccc2F)n2ncnc2n1 : what is it?
Response: -59.1

Prompt: Reported inhibition for COc1cccc(C(c2nnnn2Cc2ccccc2)N2CCN(C(=O)c3ccco3)CC2)c1OC (stereo unspecified) : what is it?
Response: -195

Prompt: Reported inhibition for CCC(C)(C(=O)NC1CCCC1)N(Cc1cccs1)C(=O)Cc1cccs1 (stereo unspecified) : what is it?
Response: -7.8

Now let's try a different one.
Prompt: Reported inhibition for CCOC(=O)c1[nH]c(C)c(C(=O)Nc2ccc(C)cc2C)c1C : what is it?
Response: -53.4

###

Reported slope is given for each of the following compounds.
target: Alpha-2C adrenergic receptor (Homo sapiens); test: compounds altering alpha2C-coupled GIRK flux – cell-based, HEK293 alpha2C/GIRK1/2, thallium flux, primary screen (AID 624); details: thallium flux BTC fluorescence, at 10 µM, actives lie on both sides;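 note: slope of fluorescence ratio to pre-addition baseline per second over 15 to 24 s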
Form rule: numeric answer, no unit written next to it.

Prompt: Request body: readout slope, system Alpha-2C adrenergic receptor (Homo sapiens), query O=S(=O)(NCc1ccccn1)c1ccc2c(c1)OCCO2 . Return the value.
Response: 0.00513

Prompt: Request body: readout slope, system Alpha-2C adrenergic receptor (Homo sapiens), query O=C(CNS(=O)(=O)c1ccccc1)NCc1ccccn1 . Return the value.
Response: 0.00515

Prompt: Request body: readout slope, system Alpha-2C adrenergic receptor (Homo sapiens), query CC(=O)Nc1ccc(NS(=O)(=O)c2ccc(Cl)c(C(=O)O)c2)cc1 . Return the value.
Response: 0.00403

Prompt: Request body: readout slope, system Alpha-2C adrenergic receptor (Homo sapiens), query COc1ccc(Cl)c(NC(=O)NCCN2CCN(c3ccccc3)CC2)c1 . Return the value.
Response: 0.00501

Prompt: Request body: readout slope, system Alpha-2C adrenergic receptor (Homo sapiens), query Cc1nc2ncnn2c(N2CCC(C(=O)NCC3CCCO3)CC2)c1Cc1ccccc1 (centres undefined) . Return the value.
Response: 0.00509

Now let's try a different one.
Prompt: Request body: readout slope, system Alpha-2C adrenergic receptor (Homo sapiens), query O=C(NCCC1=CCCCC1)C1CCN(S(=O)(=O)c2cnc[nH]2)CC1 . Return the value.
Response: 0.0051

###

Reported slope is given for each of the following compounds.
biological target: Alpha-2C adrenergic receptor (Homo sapiens); experiment: compounds altering alpha2C-coupled GIRK flux – cell-based, HEK293 alpha2C/GIRK1/2, thallium flux, primary screen (AID 624); conditions: thallium flux BTC fluorescence, at 10 µM, actives lie on both sides;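 note: slope of fluorescence ratio to pre-addition baseline per second over 15 to 24 s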
Form rule: numeric answer, no unit written next to it.

Past entries and their recorded results:
Prompt: Reported slope for CC(C)(C)n1nnnc1C(c1cccs1)N1CCN(Cc2ccccc2)CC1 (centres undefined) : what is it?
Response: 0.00586

Prompt: Reported slope for C=CCn1c(COc2ccc(CC)cc2)nnc1SC/C(O)=C(\C#N)c1nc2ccccc2[nH]1 : what is it?
Response: 0.0031

Prompt: Reported slope for CCc1c(C(=O)Nc2cc(C)ccc2OC)[nH]c(C)c1C(C)=O : what is it?
Response: 0.00495

More entries:
Prompt: Reported slope for O=C(CSc1nnnn1C1CCCC1)NCc1ccc2c(c1)OCO2 : what is it?
Response: 0.00594

Prompt: Reported slope for CCN1CCN(CCNC(=O)c2cn(C(C)c3ccccc3F)nn2)CC1 (centres undefined) : what is it?
Response: 0.00807

Prompt: Reported slope for N#CC1=C(N)OC2=C(CCC/C2=C/c2ccoc2)C1c1ccoc1 (centres undefined) : what is it?
Response: 0.00619

Prompt: Reported slope for O=C(COC(=O)c1cc(S(=O)(=O)N2CCOCC2)cs1)c1ccccc1 : what is it?
Response: 0.00656

Prompt: Reported slope for Fc1ccc(-c2nnc(CN3CCN(c4ncc(C(F)(F)F)cc4Cl)CC3)o2)cc1 : what is it?
Response: 0.00518

###

experiment: inhibitors of TNFa-induced NFkB p65 translocation, primary screen, imaging, HUVEC, MLSMR starter and 10KST1 sets (AID 438); conditions: HUVEC TNFa-induced p65 nuclear translocation; measured here: nuclei count (cytotoxicity indicator), at 2.08 µM;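 note: compound added about 3h40 before a 20 min TNFalpha stimulation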
Parameter Measured: cell count
Form rule: numeric answer, no unit written next to it.

Prompt: Reported cell count for COC(=O)c1cc(-c2c(C)nn(-c3ccccc3)c2C)n[nH]1 : what is it?
Response: 391

Now let's try a different one.
Prompt: Reported cell count for CCOc1cccc(-c2nnc3n2N=C(c2cc(OC)ccc2OC)CS3)c1 : what is it?
Response: 404

###

assay: reduction of polyQ htt aggregates in cells – imaging, exon1htt(103Q)mCFP cells, high-content imaging, primary screen (AID 483); settings: exon1htt(103Q)mCFP cell line, aggregate imaging, at 2 µM; measured here: cell count, toxicity;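 note: compound exposure lasted 3 days before fixation; percent of the per-plate median nuclei count of sample wells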
Reported nuclei count is given for each of the following compounds.

Past entries and their recorded results:
Prompt: Reported nuclei count for C#CCOC(=O)C1C2C=CC(C2)C1C(=O)O (stereo not drawn) : what is it?
Response: 87.7%

Prompt: Reported nuclei count for Cc1ccc(S(=O)(=O)C(C#N)c2nc3ccccc3nc2OC(C)C)cc1 (stereo not drawn) : what is it?
Response: 103%

Prompt: Reported nuclei count for CCc1nnc(NC(=O)CSc2nnc3ncccn23)s1 : what is it?
Response: 132%

More entries:
Prompt: Reported nuclei count for O=C(NC1CCCCC1)c1nc2c(nnn2Cc2ccccc2Cl)c(=O)[nH]1 : what is it?
Response: 85.3%

Prompt: Reported nuclei count for NC(=O)CSc1nnc(-c2cnccn2)n1-c1ccccc1 : what is it?
Response: 102%

Prompt: Reported nuclei count for COc1ccc(Br)cc1S(=O)(=O)N1CCOCC1 : what is it?
Response: 119%

Prompt: Reported nuclei count for CCN(CCO)C1CC(=O)N(c2ccccc2C)C1=O (stereo not drawn) : what is it?
Response: 104%

Prompt: Reported nuclei count for COC(=O)CCCCC(=O)C1C(=O)CC(C)(C)C(C(=O)OC)C1=O (stereo not drawn) : what is it?
Response: 96.5%

Prompt: Reported nuclei count for COc1cc(CN2CCSCC2)cc(OC)c1OC : what is it?
Response: 60.4%

Prompt: Reported nuclei count for COc1ccccc1OCc1ccc(C(=O)NC(C)(C)C)o1 : what is it?
Response: 62.4%

Prompt: Reported nuclei count for O=C(Nc1ccc(F)cc1)N(Cc1ccco1)Cc1cc2cc3c(cc2[nH]c1=O)OCO3 : what is it?
Response: 96.6%

Prompt: Reported nuclei count for COCCNC(=O)NC(=O)COC(=O)Cc1ccc2c(c1)OCCO2 : what is it?
Response: 109%

Prompt: Reported nuclei count for CC(C)(C#N)Nn1cnnc1 : what is it?
Response: 109%

Prompt: Reported nuclei count for Cc1nc(C)c(C(=O)OCC(=O)N2CCN(c3ccccc3)CC2)s1 : what is it?
Response: 99.4%

Prompt: Reported nuclei count for CCOc1ccccc1NC(=O)C1CCCN1C(=O)OCc1ccccc1 (stereo not drawn) : what is it?
Response: 103%

Prompt: Reported nuclei count for c1ccc(OCCCn2nnc(-c3ccncc3)n2)cc1 : what is it?
Response: 91.9%

Prompt: Reported nuclei count for O=C(NC1CCCCC1)C(c1ccc(Cl)cc1)N(C(=O)c1cnccn1)c1ccc2c(c1)OCO2 (stereo not drawn) : what is it?
Response: 93.8%

Prompt: Reported nuclei count for COc1ccccc1S(=O)(=O)Cc1ccc(C(=O)N2CCOCC2)o1 : what is it?
Response: 86.6%

Prompt: Reported nuclei count for O=C(CN(Cc1ccc(F)cc1)C(=O)Cn1nnc2ccccc21)NCC1CCCO1 (stereo not drawn) : what is it?
Response: 107%

Prompt: Reported nuclei count for N#Cc1cnn(Cc2ccc(Cl)cc2)c1N : what is it?
Response: 110%

Prompt: Reported nuclei count for CCOC(=O)Cc1csc(NC(=O)c2cccc(OC)c2)n1 : what is it?
Response: 97%
